Reference source for all entries: ChEMBL document CHEMBL3988442

- Test system: Wolbachia pipientis
- MEASUREMENT_PROTOCOL: Anti-Wolbachia Cell-Based Screen
- Type: functional
- Parameters: scale not given: in the data most compounds retested in dose-response had high values
- EXPERIMENTAL_CONTEXT: 5 µM
The campaign covered roughly 48,000 compounds. About 13,000 (27%) showed an effect of 50% or more. The list shows a part of the results.
Exercise: for every item that follows, state its recorded Percent Effect.
I only need the number, in %, no unit after it.

Identify the reported Percent Effect for the following entry. Cc1nc(C2CCCN(C(=O)c3ccnc(N(C)C)c3)C2)no1 (centres undefined) 127.7

Identify the reported Percent Effect for the following entry. O=C([C@@H]1CCCN1c1nccc(Nc2ccccc2)n1)N1CCCCC1 107.6

Identify the reported Percent Effect for the following entry. COC(=O)CNC(=O)N1CCN(c2nc3ccccc3n2C)CC1 124.8

Identify the reported Percent Effect for the following entry. COc1ccccc1CNC(=O)C(C)N1CC(n2nc(C)cc2C)C1 (centres undefined) -6.868

Identify the reported Percent Effect for the following entry. CNC(=O)C1(c2cnccn2)CCCN1C(=O)c1c(F)cccc1F (centres undefined) 94.23

Identify the reported Percent Effect for the following entry. Cc1cc(C2CN(CC(=O)NCc3ccco3)CCO2)ccc1F (centres undefined) -9.058

Identify the reported Percent Effect for the following entry. c1c(CN2CCOCC2)nc2n1CCN(C1CCOCC1)C2 79.69

Identify the reported Percent Effect for the following entry. CCc1nc(C2CCCN2c2ncc(Br)cn2)no1 (centres undefined) -1.956

Identify the reported Percent Effect for the following entry. Cc1nnc2n1CC(CNCc1nc(-c3ccsc3)no1)CC2 (centres undefined) -10.67

Identify the reported Percent Effect for the following entry. CN1CCC(Cc2noc(CC3CC3)n2)CC1 7.965

Identify the reported Percent Effect for the following entry. CCCN(Cc1ccc(S(=O)(=O)NC)cc1)Cc1ccccc1OC 2.153

Identify the reported Percent Effect for the following entry. Cc1cccc(N2CCN(Cc3nc(CC4CC4)no3)CC2)n1 -32.1

Identify the reported Percent Effect for the following entry. CCCN1CCC(Cc2noc(-c3[nH]cnc3C)n2)CC1 95.32

Identify the reported Percent Effect for the following entry. CN(Cc1cc(Br)cn1C)C(=O)c1cc(Cl)ccn1 -3.777

Identify the reported Percent Effect for the following entry. COc1ccccc1CNC(=O)N1CCCC(CO)C1 (centres undefined) 3.322

Identify the reported Percent Effect for the following entry. CCCc1nc(C)c(C(=O)NS(=O)(=O)c2ccc(C#N)cc2)s1 11.71

Identify the reported Percent Effect for the following entry. O=C1CCCC2(CCN(C(=O)c3cnccn3)CC2)N1 -3.096

Identify the reported Percent Effect for the following entry. Cl.O=C(O)[C@@H]1CCCN1c1nccc(Nc2ccccc2)n1 110.6

Identify the reported Percent Effect for the following entry. Cc1nc(C2CCCN(C(=O)c3ccc(S(C)(=O)=O)cc3)C2)no1 (centres undefined) 120.9

Identify the reported Percent Effect for the following entry. NC(=O)NC(=O)CCN1CCN(CC2CC2)c2ccccc21 -1.129

Identify the reported Percent Effect for the following entry. COc1cc(C(=O)NC(CC(=O)O)c2cccs2)cc(Cl)c1OC (centres undefined) 14.71

Identify the reported Percent Effect for the following entry. COc1ccccc1CC(=O)NS(C)(=O)=O -0.264

Identify the reported Percent Effect for the following entry. CC(C)c1nc(C2CCCN(C(=O)c3ccnc(N(C)C)c3)C2)no1 (centres undefined) -3.864

Identify the reported Percent Effect for the following entry. CNC(=O)C1(c2cnccn2)CCCN1C(=O)c1ccccc1C (centres undefined) 116.1

Identify the reported Percent Effect for the following entry. Cc1ccc(CNCc2ccc(-n3nc(C)cc3C)nc2)cc1 -14.48

Identify the reported Percent Effect for the following entry. CCCN1CCC(Cc2noc(-c3cc4cccnc4nc3C)n2)CC1 109.3

Identify the reported Percent Effect for the following entry. COCCC1(CO)CCCN(C(=O)c2cccnc2OC)C1 (centres undefined) -0.7359

Identify the reported Percent Effect for the following entry. CNC(=O)c1cccc(CNC2CCCSc3ccccc32)c1 (centres undefined) -0.5699

Identify the reported Percent Effect for the following entry. COc1ccccc1CN1CC(OC)CN(C(=O)CC(C)C)CC1=O (centres undefined) 106.9

Identify the reported Percent Effect for the following entry. COc1ccccc1CC(=O)NS(=O)(=O)c1ccc(C#N)cc1 90.41

Identify the reported Percent Effect for the following entry. Cc1nc(C2CCCN(C(=O)c3ccco3)C2)no1 (centres undefined) 13.92

Identify the reported Percent Effect for the following entry. Cc1nc(C2CCCN(C(=O)c3ccoc3)C2)no1 (centres undefined) 101.5

Identify the reported Percent Effect for the following entry. CCOC(=O)N1CCN(c2nc(N3CCCC3)c3ccccc3n2)CC1 -6.467

Identify the reported Percent Effect for the following entry. Cc1cccc(N2CCCC2c2nc(C)ncc2CN(C)C)n1 (centres undefined) 143.5

Identify the reported Percent Effect for the following entry. COc1ccc(N2Cc3n[nH]c(=O)n3C2=O)cc1 -0.5114

Identify the reported Percent Effect for the following entry. O=C(Nc1cccc(N2CCCC2)c1)C1CCCN1c1nccs1 (centres undefined) -13.09

Identify the reported Percent Effect for the following entry. O=C(C1CCCN1c1ncnc2ccsc12)N1CCSCC1 (centres undefined) -9.281

Identify the reported Percent Effect for the following entry. COc1ccccc1CN1CC(OC)CN(C(=O)OCC(C)C)CC1=O (centres undefined) 116.7

Identify the reported Percent Effect for the following entry. COc1ccccc1CC(=O)NS(=O)(=O)c1cncc(Br)c1 1.416

Identify the reported Percent Effect for the following entry. CCOC(=O)N1CCN(c2nc(NC)c3ccccc3n2)CC1 -5.868

Identify the reported Percent Effect for the following entry. CNC(=O)C1(c2cnccn2)CCCN1C(=O)c1ccccc1OC (centres undefined) 2.763

Identify the reported Percent Effect for the following entry. COc1ccccc1C(C)CC(=O)N1CCCS1(=O)=O (centres undefined) -3.86

Identify the reported Percent Effect for the following entry. Cc1cccc(C(=O)N2CCCCC2c2ccc(CN(C)C)cc2)n1 (centres undefined) -0.9167

Identify the reported Percent Effect for the following entry. CN(CC(=O)N1CCN(c2ccccc2F)CC1)c1cnccn1 4.093

Identify the reported Percent Effect for the following entry. CNC(=O)C1(c2cnccn2)CCCN1C(=O)c1cccnc1OC (centres undefined) 97.1

Identify the reported Percent Effect for the following entry. COc1ccccc1CN1CC(O)CN(C(=O)OCC(C)C)CC1=O (centres undefined) 126.7

Identify the reported Percent Effect for the following entry. N#Cc1cccc(-c2ncnn2CC2(O)CCCCC2)c1 2.299

Identify the reported Percent Effect for the following entry. CCNC(=O)N1CCN(c2nc3ccccc3n2C)CC1 113.5

Identify the reported Percent Effect for the following entry. O=C1CCC2(CCCN(C(=O)c3cnccn3)CC2)N1 (centres undefined) -28.51
